Reported protein stability index values for a set of variants
B1: FEM1B (parent)
chain: TLAALLLNRSESDIRYLLGYVSQQ

- Variants of: B1
- assay_summary: protein stability index of a GFP-peptide fusion (GPS, HEK-293T) (PSI 1-6); higher = more stable;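 also: lentivirally expressed fusions sorted by FACS into six bins by GFP to DsRed ratio, PSI derived from sequencing read proportions per bin multiplied by bin number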
- particulars: c terminus: a fixed tail appended
Answer using only a numeral; do not append any unit.

Input: Item under review: TLAALLLNRSESDIRYLLGYKSQQ [V21K] . Reported protein stability index?
Output: 1.97

Input: Try this variant next: TLAALLLNESESDIRYLLGYVSQQ [R9E]
Output: 1.98

Input: How about this variant: TLAALLLNRSESDWRYLLGYVSQQ [I14W]
Output: 1.77

Input: Next variant: TLAALLLNGSESDIRYLLGYVSQQ [R9G]
Output: 3.4

Input: Also TLAARLLNRSESDIRYLLGYVSQQ [L5R] , if possible.
Output: 3.37

Input: Same question for TLAALLQNRSESDIRYLLGYVSQQ [L7Q] please.
Output: 1.79

Input: Same read-out for TLAALLLNRSESDNRYLLGYVSQQ [I14N] ?
Output: 1.74

Input: Follow-up item: THAALLLNRSESDIRYLLGYVSQQ [L2H]
Output: 1.43

Input: Similarly, CLAALLLNRSESDIRYLLGYVSQQ [T1C] ?
Output: 3.15

Input: Further, for TLAALLLNRSESDIRYLQGYVSQQ [L18Q] ?
Output: 3.66

Input: Would you kindly repeat that for TLAGLLLNRSESDIRYLLGYVSQQ [A4G] ?
Output: 1.68

Input: // repeat for TLAALLLNRSESDIRYLLGYVSQG [Q24G] and report
Output: 2.68

Input: Lookup TLCALLLNRSESDIRYLLGYVSQQ [A3C]
Output: 2.17
